# IC50, Wnt/Beta-Catenin-LEF-TCF-bla HCT116 inhibitor screen per entry
Molecular target: T1, β-catenin (UniProt P35222 1-781, limits assumed)
T1 sequence (looked up): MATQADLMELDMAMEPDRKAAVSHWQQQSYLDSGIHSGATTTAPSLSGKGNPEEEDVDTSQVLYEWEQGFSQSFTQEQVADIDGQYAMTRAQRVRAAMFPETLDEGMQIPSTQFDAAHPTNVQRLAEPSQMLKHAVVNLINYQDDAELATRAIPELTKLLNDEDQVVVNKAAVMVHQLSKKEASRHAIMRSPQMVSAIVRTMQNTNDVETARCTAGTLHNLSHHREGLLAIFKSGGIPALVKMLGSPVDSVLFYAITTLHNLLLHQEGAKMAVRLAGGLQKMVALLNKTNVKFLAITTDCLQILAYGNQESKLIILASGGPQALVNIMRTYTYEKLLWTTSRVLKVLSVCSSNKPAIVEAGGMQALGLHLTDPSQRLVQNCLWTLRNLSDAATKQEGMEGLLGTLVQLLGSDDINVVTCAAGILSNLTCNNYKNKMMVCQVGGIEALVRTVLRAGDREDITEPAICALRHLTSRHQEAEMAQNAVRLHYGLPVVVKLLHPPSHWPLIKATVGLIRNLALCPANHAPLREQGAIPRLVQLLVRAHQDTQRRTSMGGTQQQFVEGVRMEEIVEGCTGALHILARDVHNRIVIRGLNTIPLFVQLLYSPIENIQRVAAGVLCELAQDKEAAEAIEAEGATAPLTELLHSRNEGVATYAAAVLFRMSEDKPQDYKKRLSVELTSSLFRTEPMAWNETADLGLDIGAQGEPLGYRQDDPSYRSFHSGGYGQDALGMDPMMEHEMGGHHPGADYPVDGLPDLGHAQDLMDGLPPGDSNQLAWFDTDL
Assay: cell-based or functional assay
Bridges are numbered along the chain shown (N, C = ends). Where no end group is shown, it is not given here. [ ]: non-standard residue; d: D form. 2Nal = N[C@@H](Cc1ccc2ccccc2c1)C(=O)O; Ala(cPr) = N[C@@H](CC1CC1)C(=O)O; NMeE = CN[C@@H](CCC(=O)O)C(=O)O; NMeQ = CN[C@@H](CCC(N)=O)C(=O)O; dNMeQ = CN[C@H](CCC(N)=O)C(=O)O; Cha = N[C@@H](CC1CCCCC1)C(=O)O; Cba = N[C@@H](CC1CCC1)C(=O)O; S5 = C=CCCC[C@](C)(N)C(=O)O; Ac6c = NC1(C(=O)O)CCCCC1
For clarity, give the value followed by its unit.

Please review the following examples before continuing.
Ac-HR[NMeE]RSL[NMeQ]TLR[S5]IQR[S5][Cba][2Nal]-NH2 (staple 11-15) [SEQ ID NO: 154]
2.26 µM
Ac-HRQRSLQTLR[S5]IQR[S5][Ac6c][2Nal]-NH2 (staple 11-15) [SEQ ID NO: 177]
4.45 µM
Ac-HRQRSLQTLR[S5]IQR[S5][Ala(cPr)][2Nal]-NH2 (staple 11-15) [SEQ ID NO: 162]
7.05 µM
Ac-HRQRSLQTLR[S5]IQR[S5][Cba][2Nal]-NH2 (staple 11-15) [SEQ ID NO: 147]
1.54 µM
HRQRSLQT[Cha]R[S5]IQR[S5][Cba][2Nal] (staple 11-15; not fully specified (residues 3, 7, N-terminus, C-terminus); printed as HR(N-methylQ)RSL(N-methylQ)T(Cha)RXIQRX(CBA)(2-Nal), X/X stapled, (S) α-methyl, N-terminal Ac, C-terminal NH2) [SEQ ID NO: 163]
4.43 µM
L[dNMeQ]TLR[S5]IQR[S5][Cba][2Nal] (staple 6-10; not fully specified (N-terminus, C-terminus); printed as L(N-methylQ)TLRXIQRX(CBA)(2-Nal), X/X stapled, (S) α-methyl, N-terminal Ac, C-terminal NH2) [SEQ ID NO: 108]
3.16 µM

The record that follows has no IC50, Wnt/Beta-Catenin-LEF-TCF-bla HCT116 inhibitor screen shown yet.
For reference, reported IC50, Wnt/Beta-Catenin-LEF-TCF-bla HCT116 inhibitor screen for Ac-HR[NMeQ]RSL[NMeQ]TLR[S5]IQR[S5][Cha][2Nal]-NH2 (staple 11-15; also: N-methylQ at 3 and 7: D or L (both stated)) [SEQ ID NO: 181] stands at 4.46 µM
